Biological target: Free fatty acid receptor 1 (Homo sapiens)
Sequence (O14842 whole entry): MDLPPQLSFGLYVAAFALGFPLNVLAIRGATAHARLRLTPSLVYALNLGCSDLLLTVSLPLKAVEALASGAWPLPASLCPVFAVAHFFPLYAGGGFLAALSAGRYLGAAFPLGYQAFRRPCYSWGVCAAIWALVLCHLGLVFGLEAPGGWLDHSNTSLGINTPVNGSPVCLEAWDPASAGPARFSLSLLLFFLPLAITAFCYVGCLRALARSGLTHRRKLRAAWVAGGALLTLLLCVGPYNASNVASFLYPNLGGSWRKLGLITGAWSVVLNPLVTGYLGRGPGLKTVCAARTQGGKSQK
Experiment: Agonist activity at human FFA1 receptor expressed in CHO cells assessed as increase in intracellular calcium levels measured for 1 hr by Fluo 4-AM dye based FLIPR assay
assay-endpoint: pEC50
Give bare numbers, as −log10 of the molar value.

Past entries and their recorded results:
INSERT INTO assay_data (smiles_data, assay_endpoint, reported) VALUES
  ('Cc1noc(C)c1-c1cccc(COc2ccc(CCC(=O)O)c(F)c2)c1', 'pEC50', 7.49),
  ('[2H]C([2H])(Cc1ccc(OCc2cccc(-c3c(C)noc3C)c2)cc1)C(=O)O', 'pEC50', 7.54);

Consider now this further compound.
Lab note: [2H]C([2H])(Cc1ccc(OCc2cccc(-c3c(C)noc3C)c2)cc1F)C(=O)O gave pEC50 of 7.43
